// data source = patent US20240382474A1

- testSystem: human ENPP1 enzymatic domain (Homo sapiens, UniProt P22413)
- Construct: recombinant protein containing the human ENPP1 enzymatic domain
- Sequence (P22413 191-591 limits assumed): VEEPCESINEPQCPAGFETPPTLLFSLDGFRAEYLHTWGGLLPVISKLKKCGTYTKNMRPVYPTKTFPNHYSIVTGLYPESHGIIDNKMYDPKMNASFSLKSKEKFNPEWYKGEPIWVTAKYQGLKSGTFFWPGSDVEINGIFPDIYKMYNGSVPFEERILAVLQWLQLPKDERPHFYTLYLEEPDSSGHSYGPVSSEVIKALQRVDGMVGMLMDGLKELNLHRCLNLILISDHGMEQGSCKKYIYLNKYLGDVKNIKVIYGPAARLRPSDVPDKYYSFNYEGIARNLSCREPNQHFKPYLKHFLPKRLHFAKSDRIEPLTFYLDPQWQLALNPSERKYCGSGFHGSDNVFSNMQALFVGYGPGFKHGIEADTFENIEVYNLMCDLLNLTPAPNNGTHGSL
- experimentNotes: ENPP1 Enzymatic Inhibition Assay (2′3′-cGAMP substrate, AMP-Glo luminescence)
- conditionDescription: 1 nM ENPP1, 20 uM 2′3′-cGAMP, 30 minutes at 37° C.
pIC50: −log10 of the molar value.
measuredProperty: pIC50

Query block: Reported pIC50, compound `CN[S@@](=N)(=O)c1ccc(Nc2ccnc3cc(OC)ccc23)cc1` : ____
Result block: > 8.00

Query block: Reported pIC50, compound `COc1ccc2c(Nc3ccc([S@@](=N)(=O)NC[C@@H](C)OC(C)=O)cc3)ccnc2c1` : ____
Result block: > 8.00

Query block: Reported pIC50, compound `COc1ccc2c(Nc3ccc([S@@](=N)(=O)NC[C@@H](C)O)cc3)ncnc2c1` : ____
Result block: > 8.00

Query block: Reported pIC50, compound `COc1ccc2c(Nc3ccc([S@](=N)(=O)N[C@@H](C)CO)cc3)ccnc2c1` : ____
Result block: > 8.00

Query block: Reported pIC50, compound `COc1ccc2c(Nc3ccc([S@](=N)(=O)N[C@@H](C)c4ccnn4C)cc3)ccnc2c1` : ____
Result block: 7.00 to 8.00

---
Query block: Reported pIC50, compound `COc1ccc2c(Nc3ccc([S@@](=N)(=O)NCC4CC4)cc3)c(C#N)cnc2c1` : ____
Result block: 7.00 to 8.00

Query block: Reported pIC50, compound `COc1ccc2c(Nc3ccc([S@](=N)(=O)NC[C@H](O)C(C)(C)C)cc3)ccnc2c1` : ____
Result block: > 8.00

Query block: Reported pIC50, compound `COc1ccc2c(Oc3ccc([S@](=N)(=O)NC[C@@H](C)O)cc3)ccnc2c1` : ____
Result block: > 8.00

---

- testSystem: human ENPP1 enzymatic domain (Homo sapiens, UniProt P22413)
- Construct: recombinant protein containing the human ENPP1 enzymatic domain
- experimentNotes: ENPP1 Enzymatic Inhibition Assay (2′3′-cGAMP substrate, AMP-Glo luminescence)
- conditionDescription: 1 nM ENPP1, 20 uM 2′3′-cGAMP, 30 minutes at 37° C.
measuredProperty: IC50

Would you please look over these solved cases?
Query block: Reported IC50, compound `COc1ccc2c(Oc3ccc([S@](=N)(=O)NC[C@@H](O)CO)cc3)ccnc2c1` : ____
Result block: 10 to 100 nM

Query block: Reported IC50, compound `COc1ccc2c(Oc3ccc([S@@](=N)(=O)N[C@H](C)CO)cc3)ccnc2c1` : ____
Result block: < 10 nM

Query block: Reported IC50, compound `COc1ccc2c(Oc3ccc([S@@](=N)(=O)N[C@H](C)c4ccnn4C)cc3)ccnc2c1` : ____
Result block: < 10 nM

Query block: Reported IC50, compound `COc1cc2nccc(Nc3ccc([S@](=N)(=O)NC[C@@H](C)O)cc3)c2cc1OC` : ____
Result block: 10 to 100 nM

Query block: Reported IC50, compound `COc1ccc2c(Nc3ccc([S@@](=N)(=O)N[C@@H](C)CO)cc3)ccnc2c1` : ____
Result block: 10 to 100 nM

---
Query block: Reported IC50, compound `COc1ccc2c(Nc3ccc([S@@](=N)(=O)NC[C@@H](C)O)cc3)ccnc2c1` : ____
Result block: < 10 nM

Query block: Reported IC50, compound `COc1ccc2c(Oc3ccc([S@](=N)(=O)NC[C@H](C)O)cc3)ccnc2c1` : ____
Result block: 10 to 100 nM

Query block: Reported IC50, compound `COc1ccc2c(Nc3ccc([S@](=N)(=O)NCCCn4cnnc4)cc3)ccnc2c1` : ____
Result block: < 10 nM

Query block: Reported IC50, compound `COc1ccc2c(Oc3ccc([S@@](=N)(=O)NC[C@H](O)CO)cc3)ccnc2c1` : ____
Result block: < 10 nM

Query block: Reported IC50, compound `COc1cccc2c(Nc3ccc([S@](=N)(=O)NCCO)cc3)ccnc12` : ____
Result block: > 100 nM

Query block: Reported IC50, compound `COc1ccc2c(Nc3ccc([S@](=N)(=O)NC[C@H](C)O)cc3F)ccnc2c1` : ____
Result block: 10 to 100 nM

Query block: Reported IC50, compound `CN[S@@](=N)(=O)c1ccc(Nc2ncnc3cc(OC)ccc23)cc1` : ____
Result block: 10 to 100 nM

Query block: Reported IC50, compound `COc1ccc2c(Oc3ccc([S@](=N)(=O)NC[C@H](O)C(C)(C)C)cc3)ccnc2c1` : ____
Result block: < 10 nM

Query block: Reported IC50, compound `COc1ccc2c(Oc3ccc([S@](=N)(=O)N[C@@H](C)CO)cc3)ccnc2c1` : ____
Result block: 10 to 100 nM

Query block: Reported IC50, compound `COc1ccc2c(Nc3ccc([S@@](=N)(=O)NC[C@H](C)O)cc3F)ccnc2c1` : ____
Result block: < 10 nM

Query block: Reported IC50, compound COc1ccc2c(Oc3ccc([S@@](=N)(=O)NC(C)c4ccn(C)n4)cc3)ccnc2c1 (some centres unmarked) : ____
Result block: < 10 nM

Query block: Reported IC50, compound `COc1ccc2c(Nc3ccc([S@@](=N)(=O)NC[C@H](C)O)cc3)ccnc2c1` : ____
Result block: < 10 nM
